Taken from patent US7629294B2.

- protocolNotes: physchem
- setupConditions: logPs
Threshold 4. chromatographic logP below it: y. chromatographic logP at it or above: n.

> print(dat)
                                   compound  assignedclass
1  CC(C)C(C)Nc1c(-c2ccc(F)cc2Cl)c(Cl)nc2c(/C=N/NC(N)=S)cnn12 (stereo not drawn)              y
2  CC(C)C(C)Nc1c(-c2ccc(F)cc2Cl)c(Cl)nc2c(-c3ccccn3)cnn12 (stereo not drawn)              y
3  CC(C)[C@@H](C)Nc1c(-c2c(F)cccc2Cl)c(Cl)nc2c(C(=O)O)cnn12              y
4  COC(=O)c1cnn2c(O)c(-c3c(F)cccc3Cl)c(O)nc12              y
5  COc1nc2c(C(=O)O)cnn2c(NC(C)C(C)C)c1-c1sccc1C (stereo not drawn)              y
6  Cc1ccsc1-c1c(Cl)nc2c(-c3nsc(=O)o3)cnn2c1NC(C)C(C)C (stereo not drawn)              n
7  COC(=O)c1cnn2c(N[C@H](C)C(C)C)c(-c3c(F)cccc3Cl)c(Cl)nc12              n
8  Cc1ccsc1-c1c(Cl)nc2c(C(N)=O)cnn2c1NC(C)C(C)C (stereo not drawn)              y

----------
- protocolNotes: physchem
- setupConditions: logP
parameterMeasured: chromatographic logP

> print(dat)
                                   molecule  measurednumber
1  COC(=O)c1cnn2c(Cl)c(-c3ccc(C#N)cc3Cl)c(Cl)nc12            2.85
2  C[C@@H](Nc1c(-c2ccc(F)cc2Cl)c(Cl)nc2c(C(=O)NO)cnn12)C(C)(C)C            3.51
3  C[C@@H](Nc1c(-c2ccc(F)cc2Cl)c(Cl)nc2c(-c3ncco3)cnn12)C(C)(C)C            4.72
4  C[C@@H](Nc1c(-c2ccc(F)cc2Cl)c(Cl)nc2c(C3=NOCCN3)cnn12)C(C)(C)C            3.23
5  CC(C)[C@@H](C)Nc1c(-c2ccc(C(N)=O)cc2Cl)c(Cl)nc2c(C(=O)O)cnn12 (single isomer, unassigned)            1.96
6  CCC(C)c1c(Cl)nc2c(C(=O)OC)cnn2c1Cl (stereo not drawn)            3.13
7  CC(C)C(C)Nc1c(-c2ccc(F)cc2Cl)c(Cl)nc2c(-c3ccccn3)cnn12 (stereo not drawn)            3.54
8     COC(=O)c1cnn2c(Cl)c(C3CCCC3)c(Cl)nc12            3.31
9  CCC(C)c1c(Cl)nc2c(C(=O)O)cnn2c1N[C@@H](C)C(F)(F)F (stereo partly drawn)            2.88

----------
- protocolNotes: physchem
- setupConditions: logP
parameterMeasured: chromatographic logP

> print(dat)
                                    compound  measurednumber
 1  CC(C)[C@@H](C)Nc1c(C2CCCC2)c(Cl)nc2c(C(=O)O)cnn12             3.7
 2  C[C@@H](Nc1c(-c2ccc(F)cc2Cl)c(Cl)nc2c(-c3nsc(=O)o3)cnn12)C(C)(C)C            5.38
 3  COC(=O)c1cnn2c(N[C@@H](C)C(F)(F)F)c(-c3ccc(C#N)cc3Cl)c(Cl)nc12 (single isomer, unassigned) [drawing 54 atropisomer A]            3.32
 4  C[C@@H](Nc1c(-c2ccc(F)cc2Cl)c(Cl)nc2c(C(N)=O)cnn12)C(C)(C)C            3.88
 5  CC(Nc1c(-c2ccc(F)cc2Cl)c(Cl)nc2c(Br)cnn12)C(C)(C)C (stereo not drawn)            5.78
 6  C[C@H](Nc1c(C2CCCC2)c(Cl)nc2c(C(=O)O)cnn12)C(F)(F)F            3.06
 7  C[C@@H](Nc1c(-c2ccc(F)cc2Cl)c(Cl)nc2c(C3=NOCCO3)cnn12)C(C)(C)C            4.43
 8  COC(=O)c1cnn2c(N[C@@H](C)C(F)(F)F)c(C3CCCC3)c(Cl)nc12            3.89
 9  COC(=O)c1cnn2c(N[C@@H](C)C(C)C)c(-c3ccc(C#N)cc3Cl)c(Cl)nc12 (single isomer, unassigned) [drawing 53 atropisomer A]            3.72
10  C[C@@H](Nc1c(-c2ccc(F)cc2Cl)c(Cl)nc2c(C(N)=NO)cnn12)C(C)(C)C            2.47
11  CCC(C)c1c(Cl)nc2c(C(=O)OC)cnn2c1N[C@@H](C)C(C)C (stereo partly drawn)            4.49
12  CC(C)[C@H](C)Nc1c(C2CCCC2)c(Cl)nc2c(C(=O)O)cnn12             3.7
13  COC(=O)c1cnn2c(N[C@@H](C)C(C)C)c(C3CCCC3)c(Cl)nc12            4.72
14  CCC(C)c1c(Cl)nc2c(C(=O)OC)cnn2c1N[C@H](C)C(C)C (stereo partly drawn)            4.49
15  CCC(C)c1c(Cl)nc2c(C(=O)OC)cnn2c1N[C@@H](C)C(F)(F)F (stereo partly drawn)            3.76
16                       N#Cc1ccc(Br)c(Cl)c1            2.82
17  C[C@H](Nc1c(-c2ccc(C#N)cc2Cl)c(Cl)nc2c(C(=O)O)cnn12)C(F)(F)F (single isomer, unassigned)            2.63
18  COC(=O)c1cnn2c(N[C@H](C)C(C)C)c(-c3ccc(C#N)cc3Cl)c(Cl)nc12 (single isomer, unassigned) [drawing 52 atropisomer A]            3.64
19  CC(C)[C@@H](C)Nc1c(-c2ccc(C#N)cc2Cl)c(Cl)nc2c(C(=O)O)cnn12 (single isomer, unassigned)             2.9
20  CCC(C)c1c(Cl)nc2c(C(=O)O)cnn2c1N[C@@H](C)C(C)C (stereo partly drawn)            3.52
21  COC(=O)C(C(=O)OC)c1ccc(C#N)cc1Cl [dimethyl(2-chloro-4-cyanophenyl)malonate]            2.34
